Cited source: the supplement of paper PMC12455559

assay: PET hydrolysis, aromatic products released after 48 h (umol product/mg enzyme); higher = more PET depolymerization activity; conditions: substrate: cryPow; 40 °C; pH 7.5
Listed next: entries and their corresponding PET hydrolysis.

chain="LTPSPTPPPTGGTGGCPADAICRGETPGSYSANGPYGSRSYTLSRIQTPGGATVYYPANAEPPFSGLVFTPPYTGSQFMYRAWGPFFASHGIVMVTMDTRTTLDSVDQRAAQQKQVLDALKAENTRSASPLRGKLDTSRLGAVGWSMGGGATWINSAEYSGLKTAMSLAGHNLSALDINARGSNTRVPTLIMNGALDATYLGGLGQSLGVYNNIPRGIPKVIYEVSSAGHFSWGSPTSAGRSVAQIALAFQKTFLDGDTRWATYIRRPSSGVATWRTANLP [ESM175]" val="< 3"

Documented PET hydrolysis of DTGSHERGPDPTEQALEARSGPFDTDDERVSSLGASGFGGGTIYYPEDTSEGDFGAVALAPGYTASSTSYSSLAERIASHGFVVLAFDTNTRYDQPNSRGRQMESALEYLTEDSDVTDRIDTDRQAVSGHSMGGGGTLAAADDNPDLQAAVPLTPWHTQKSWSGMQVPTMIIGAENDSIASVRSHSIRFYESLPGSLEKGYAEVDGASHFAPNSNDDTVAKYTITWLKRFVDNDTRYEQFLCPPPDSGGWGDDLSDYRDSCPTG [DP052] : < 3

Documented PET hydrolysis of DTNPFQRGPAPTEASVSAQKGPFATAQVNVPANSGEGFNDGTIYYPTDTSQGTFGAIAVMPGFLSPQDWIRWYGPTLASQGFVVMTLDSKGFIDSPTARGNQLLAALDYLTTKSKVVDRIDTSRLGVVGWSMGGGGALESTYNRPSLKADVALAPWHVGLDQSKITVPSLILADDNDWLAPTGSFAKPFYAGIPESTNKAFIELKNANHFTFTGYNKNIAKYAVSWLKRFVDDDTRYDQFLCPKPATNNEISQSEETCPLH [DP054] : < 3

Documented PET hydrolysis of CAAGGPGASPGLQPTIASLSVDGAFKVMTYTDIPDVPEFGDATVYYPADTPTPIGGVAISPGWTEAQRHINWWGPRLASHGYAVLVLDTNDARRDQPEERAEALIAAVRILRGENDRAESPLQGRVDTGKMAIMGHSMGGGGTLIAANKYPDEIQAAIPFTPWQPDGDFGQITAPTLVMAGSADRVAGVADHAWPHYQSIPETTTKVFMEVDGGNHFIADTRRGTDLGTIGRYGIAWLKLYLDGDERYRSFIYGAEAEVDREKFSRYLTSP [TEP119] : < 3

Documented PET hydrolysis of ETEYRKGPDPTEATVTAALGPFATASVSVPSSVAGFGGGVIHYPTDTSQGTFGAVAVAPGFLGSSANYAWMGPRLASQGFVVFLINTDSRLDQPPSRGDQLLAALDYLVTSSSVRARIDASRLAVAGHSMGGGGTLEAATDRPGLQAAIPLQPWHTVKSWPNVQVPTLIIGAENDTTAPVASHAEPFYVSIPAAAEKAYLELNNAEHRVGTAGDTTQAKFMIVWLKRYVDNDTRYEQFICPPPPAPSSEIQEYRNTCPG [TEP171] : < 3

Documented PET hydrolysis of ATPARPASVAAAPAAVQRAADNPYQRGPAPTEASITAEKGPFAVETIPVPAGSGTGFNKGTVYAPTDTSEGTFGAIVVSPGFVSPEAWISWYGPRLASQGFVVMTLETNSLVDVPASRGDQLLAALDWLTGKSSVKNRIDASRTAVMGHSMGGGGTLEAANKRPSLKADIPLAPWDTNYNFPNIKTPTLIMGADNDLIAPASSMAESYYNNITTAPEKAYLLLKNAGHMTFVSPNTTIAKYSIAWMKRFVDNDTRYDQFLCPAPKPDANIAKYLDTCPNG [DP016] : 17

Documented PET hydrolysis of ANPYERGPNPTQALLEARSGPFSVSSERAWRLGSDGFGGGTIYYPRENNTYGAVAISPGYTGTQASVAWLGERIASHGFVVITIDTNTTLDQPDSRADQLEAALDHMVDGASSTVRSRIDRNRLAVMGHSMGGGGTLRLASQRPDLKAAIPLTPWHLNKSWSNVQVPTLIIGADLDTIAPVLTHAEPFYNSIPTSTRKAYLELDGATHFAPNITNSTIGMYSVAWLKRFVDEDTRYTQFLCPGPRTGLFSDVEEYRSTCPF [TEP014] : 4.5

Documented PET hydrolysis of ADNPYQRGPNPTQASIAANRGTFATAETSVGGGNGFGGAKIYYPTDTSQGTFGAIAVSPGYTATWAAEGAWMGHWLASFGFVVIGIDTINRNDREYARGTQLLAALDYLTQRSSVRTRVDPNRLAVMGHSMGGGGTISAALRRPTLKAAIGLAPYYPSQSTSGMQVPTMLLAGQNDGTSTPASIVTFYNDIPASTEKVYLELTGAGHGFPTSNNSVVTRKVIPWMKIFIDQDTRYTQFLCPLQDLTGIRTYRNSCPLLPNDPGTTFSLAGSASGKCADVPGRVQTNGTGLIIWTCNNAGNQQWTQTPAGELRIYGNTKCMDANASGQGARVTINTCNGGNSQKWTVNTNGTVTNAASGRCLDAGGTADNSPVVVNTCNAASGQTWTKRP [DP047] : < 3

Documented PET hydrolysis of ADNPYERGPDPTERSIEAARGPFGVSTERVGSLGVSDFGGATIYHPTDRSQTYGAIAISPGFTAGWTSLSWLGERLASQGFVVIGIDTITRLDQPGSRGRQLLAALDYATTRSNARALIDAQRLAVAGHSMGGGGTLEAAAERPSLKAAIPLAPWNLDKSWAEVRTPTLIIGGESDNIAAVNTHSIPFYNSLSNAREKAYMEIDNGTHFFPNTANTLMAKYMISWMKRYIDDDTRYEQFLCPPPDDRGISEYRHTCPGS [DP088] : < 3

Documented PET hydrolysis of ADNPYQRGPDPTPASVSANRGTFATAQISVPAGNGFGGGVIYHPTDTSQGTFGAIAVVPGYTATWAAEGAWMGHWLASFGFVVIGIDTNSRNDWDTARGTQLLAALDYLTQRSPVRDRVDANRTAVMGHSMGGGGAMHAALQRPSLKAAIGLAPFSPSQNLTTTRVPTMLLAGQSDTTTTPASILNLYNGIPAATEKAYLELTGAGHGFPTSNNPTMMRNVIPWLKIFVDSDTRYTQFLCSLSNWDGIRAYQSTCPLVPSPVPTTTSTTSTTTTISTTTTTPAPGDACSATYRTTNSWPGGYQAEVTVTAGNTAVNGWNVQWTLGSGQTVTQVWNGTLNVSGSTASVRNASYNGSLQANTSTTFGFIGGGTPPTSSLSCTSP [ESM035] : 23.5

---

experiment: PET hydrolysis, aromatic products released after 48 h (umol product/mg enzyme); higher = more PET depolymerization activity; settings: substrate: cryPow; 60 °C; pH 7.5
parameter: PET hydrolysis
Please reply with the number alone, leaving off any unit.

Known PET hydrolysis results, listed for orientation:
chain="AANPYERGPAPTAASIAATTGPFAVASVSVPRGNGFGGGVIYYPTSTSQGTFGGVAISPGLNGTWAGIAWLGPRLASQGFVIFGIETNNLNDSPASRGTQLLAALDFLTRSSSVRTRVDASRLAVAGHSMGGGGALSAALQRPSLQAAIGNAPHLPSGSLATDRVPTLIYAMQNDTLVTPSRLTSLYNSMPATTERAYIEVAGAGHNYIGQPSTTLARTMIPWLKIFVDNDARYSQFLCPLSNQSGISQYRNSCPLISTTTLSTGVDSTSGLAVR [ESM157]" parameter="PET hydrolysis" val=14.5
chain="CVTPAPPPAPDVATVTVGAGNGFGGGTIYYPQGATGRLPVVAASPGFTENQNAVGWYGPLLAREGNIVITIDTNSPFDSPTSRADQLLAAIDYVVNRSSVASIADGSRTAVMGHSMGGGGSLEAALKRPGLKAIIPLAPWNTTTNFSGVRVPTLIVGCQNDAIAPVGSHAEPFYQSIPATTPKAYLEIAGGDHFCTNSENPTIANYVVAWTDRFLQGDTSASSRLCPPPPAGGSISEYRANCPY [ESM050]" parameter="PET hydrolysis" val=140
chain="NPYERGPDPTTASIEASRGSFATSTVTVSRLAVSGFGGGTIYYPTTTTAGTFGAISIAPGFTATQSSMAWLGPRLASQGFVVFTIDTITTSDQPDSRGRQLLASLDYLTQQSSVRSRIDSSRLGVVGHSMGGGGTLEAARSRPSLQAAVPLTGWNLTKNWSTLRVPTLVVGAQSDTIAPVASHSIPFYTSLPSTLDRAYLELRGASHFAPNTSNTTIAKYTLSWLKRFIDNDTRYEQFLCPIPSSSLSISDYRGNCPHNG [ESM167]" parameter="PET hydrolysis" val=26

Please turn your attention to the following entry.
Documented PET hydrolysis of DEIGQAPTAGNITGNGSFTTTSESISSLVSGFGGGRVYYPTTAGKYPVVAISPGFTATWSSLSWIGPRLSSWGFVVVGIETNSIYDQPASRGSQLLAALNWAVNSSSSAVRARVDGSRRGVAGHSMGGGGTLEALAADTTGLVKAGVPIAPWNSDKTWNNVSEPVMIVGGQSDTVAPVASHSIPFYNTLAGPKGYVELTGASHFFPQSTNATLSRALVAWFKRWLNQDSRFTPYTCGFSGLAVSDFRSNAC [ESM090] : 51
